- SYSTEM: ALK enzyme (Homo sapiens, UniProt Q9UM73)
- Construct: purchased Invitrogen PV4185
- Sequence (Q9UM73 19-1620): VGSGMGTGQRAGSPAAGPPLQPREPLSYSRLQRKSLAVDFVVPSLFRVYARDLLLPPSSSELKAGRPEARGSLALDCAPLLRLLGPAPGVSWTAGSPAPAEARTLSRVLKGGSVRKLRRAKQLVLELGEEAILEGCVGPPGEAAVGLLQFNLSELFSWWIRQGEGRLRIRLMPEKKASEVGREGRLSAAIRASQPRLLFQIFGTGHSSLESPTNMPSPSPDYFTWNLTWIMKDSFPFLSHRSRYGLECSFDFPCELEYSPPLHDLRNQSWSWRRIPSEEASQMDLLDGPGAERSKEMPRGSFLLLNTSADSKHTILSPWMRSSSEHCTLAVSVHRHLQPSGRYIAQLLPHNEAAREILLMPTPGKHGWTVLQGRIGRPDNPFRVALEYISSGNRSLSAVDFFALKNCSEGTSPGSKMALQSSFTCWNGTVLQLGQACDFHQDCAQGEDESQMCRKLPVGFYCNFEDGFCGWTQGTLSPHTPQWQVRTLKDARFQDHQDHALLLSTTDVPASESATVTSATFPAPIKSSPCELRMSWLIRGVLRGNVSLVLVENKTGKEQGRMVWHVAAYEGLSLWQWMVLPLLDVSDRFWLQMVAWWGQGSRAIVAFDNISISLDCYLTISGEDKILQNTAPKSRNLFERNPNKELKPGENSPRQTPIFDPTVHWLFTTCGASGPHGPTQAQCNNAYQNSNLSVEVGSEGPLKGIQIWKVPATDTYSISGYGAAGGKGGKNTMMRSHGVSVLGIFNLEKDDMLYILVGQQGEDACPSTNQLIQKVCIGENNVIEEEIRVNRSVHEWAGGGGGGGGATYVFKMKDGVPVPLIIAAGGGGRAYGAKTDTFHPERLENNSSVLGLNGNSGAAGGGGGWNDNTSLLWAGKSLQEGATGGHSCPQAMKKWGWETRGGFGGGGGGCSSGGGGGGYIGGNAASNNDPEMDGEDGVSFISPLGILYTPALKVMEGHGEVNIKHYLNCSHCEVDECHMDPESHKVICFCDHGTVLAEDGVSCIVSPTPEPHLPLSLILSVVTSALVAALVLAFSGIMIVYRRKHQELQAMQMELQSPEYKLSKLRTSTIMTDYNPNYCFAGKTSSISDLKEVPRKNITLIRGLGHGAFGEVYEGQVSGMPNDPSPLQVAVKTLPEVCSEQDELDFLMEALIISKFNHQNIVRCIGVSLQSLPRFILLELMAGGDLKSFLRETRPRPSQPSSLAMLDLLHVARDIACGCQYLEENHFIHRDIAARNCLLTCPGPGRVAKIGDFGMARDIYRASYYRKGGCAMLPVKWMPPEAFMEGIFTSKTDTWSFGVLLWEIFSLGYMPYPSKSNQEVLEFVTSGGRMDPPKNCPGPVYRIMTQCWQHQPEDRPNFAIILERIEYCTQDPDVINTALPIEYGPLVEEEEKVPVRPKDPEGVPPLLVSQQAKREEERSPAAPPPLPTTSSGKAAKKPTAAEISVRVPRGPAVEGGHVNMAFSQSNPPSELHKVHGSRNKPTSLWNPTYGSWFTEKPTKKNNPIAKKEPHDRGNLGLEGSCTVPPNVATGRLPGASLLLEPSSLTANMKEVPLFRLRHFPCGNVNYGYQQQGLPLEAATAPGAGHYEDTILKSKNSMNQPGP
- EXPERIMENT_NOTES: ALK enzymatic activity assay 1
- Assay type: biochemical
pIC50: −log10 of the molar value.
Items are presented alongside their recorded pIC50.

[
  {
    "COMPOUND": "CC(Oc1cc(-c2ccnn2C)cnc1N)c1cc(F)ccc1C#N (single isomer, unassigned) [Example 44]",
    "pIC50": 7.24
  },
  {
    "COMPOUND": "C[C@@H](Oc1cc(-c2c(F)cnn2C)cnc1N)c1cc(F)ccc1-n1nccn1",
    "pIC50": 7.52
  },
  {
    "COMPOUND": "COc1ccc(F)cc1C(C)Oc1cc(-c2c(C)nnn2C)cnc1N (stereo not shown)",
    "pIC50": 7.07
  },
  {
    "COMPOUND": "COc1ccc(F)cc1C(C)Oc1cc(-c2cccnc2O)cnc1N (stereo not shown)",
    "pIC50": 7.01
  },
  {
    "COMPOUND": "Cc1n[nH]cc1-c1cnc(N)c(OC(C)c2cc(F)ccc2-n2cccn2)c1 (stereo not shown)",
    "pIC50": 7.15
  },
  {
    "COMPOUND": "CC(Oc1cc(-c2ccnn2C)cnc1N)c1cc(F)cc2cccnc12 (stereo not shown)",
    "pIC50": 7.34
  },
  {
    "COMPOUND": "COc1ccc(F)cc1[C@@H](C)Oc1cc(-c2ccnn2C)nnc1N",
    "pIC50": 7.32
  },
  {
    "COMPOUND": "CC(Oc1cc(-c2ccnn2C)cnc1N)c1cc(F)ccc1-c1ncco1 (stereo not shown)",
    "pIC50": 7.30
  },
  {
    "COMPOUND": "COc1ccc(F)cc1C(C)Oc1nc(-c2nccn2C)cnc1N (stereo not shown)",
    "pIC50": 7.17
  },
  {
    "COMPOUND": "COc1ccc(F)cc1C(C)Oc1cc(-c2cccn(C)c2=O)cnc1N (stereo not shown)",
    "pIC50": 6.75
  },
  {
    "COMPOUND": "Cc1n[nH]c(C)c1-c1cnc(N)c(OC(C)c2cc(F)ccc2-n2cccn2)c1 (stereo not shown)",
    "pIC50": 7.13
  },
  {
    "COMPOUND": "COc1ccc(F)cc1C(C)Oc1cc(-c2cnn(C)c2CO)cnc1N (stereo not shown)",
    "pIC50": 7.15
  },
  {
    "COMPOUND": "CC(Oc1cc(-c2ccnn2C)nnc1N)c1cc(F)ccc1-n1cccn1 (stereo not shown)",
    "pIC50": 7.06
  },
  {
    "COMPOUND": "COc1ccc(F)cc1C(C)Oc1cc(-c2c(C)n[nH]c2C)cnc1N (stereo not shown)",
    "pIC50": 7.47
  },
  {
    "COMPOUND": "Cc1n[nH]cc1-c1cnc(N)c(OC(C)c2cc(F)ccc2Cl)c1 (stereo not shown)",
    "pIC50": 7.12
  },
  {
    "COMPOUND": "COc1ccc(F)cc1C(C)Oc1cc(-c2cccnc2OCCO)cnc1N (stereo not shown)",
    "pIC50": 7.10
  },
  {
    "COMPOUND": "COc1ccc(F)cc1C(C)Oc1cc(-c2ncsc2CO)cnc1N (stereo not shown)",
    "pIC50": 6.88
  },
  {
    "COMPOUND": "COc1ccc(F)cc1C(C)Oc1cc(-c2cnnn2CCO)cnc1N (stereo not shown)",
    "pIC50": 6.87
  },
  {
    "COMPOUND": "COc1ccc(F)cc1[C@@H](C)Oc1cc(-c2c(C)nn(CCO)c2C)cnc1N",
    "pIC50": 7.57
  },
  {
    "COMPOUND": "COc1ccc(F)cc1[C@@H](C)Oc1cc(-c2c(C)ncn2C)cnc1N",
    "pIC50": 7.42
  },
  {
    "COMPOUND": "COc1ccc(F)cc1C(C)Oc1cc(-c2c(C)noc2C)cnc1N (stereo not shown)",
    "pIC50": 7.33
  },
  {
    "COMPOUND": "COc1ccc(F)cc1C(C)Oc1cc(-c2c(C)nn(C)c2C)cnc1N (stereo not shown)",
    "pIC50": 7.35
  }
]

* * *

- SYSTEM: human recombinant wild-type ALK kinase domain (amino acids 1093-1411) (Homo sapiens)
- Construct: ALK kinase domain (amino acids 1093-1411)
- Sequence (Q9UM73 1093-1411): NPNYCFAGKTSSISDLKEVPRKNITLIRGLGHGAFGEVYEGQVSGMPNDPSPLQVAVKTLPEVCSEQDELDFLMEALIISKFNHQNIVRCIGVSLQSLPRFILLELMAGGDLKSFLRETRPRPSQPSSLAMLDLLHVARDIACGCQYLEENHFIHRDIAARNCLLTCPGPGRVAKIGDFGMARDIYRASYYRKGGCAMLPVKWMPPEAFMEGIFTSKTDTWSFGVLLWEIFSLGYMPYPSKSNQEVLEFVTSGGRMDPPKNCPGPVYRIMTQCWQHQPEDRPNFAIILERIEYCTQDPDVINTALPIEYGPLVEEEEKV
- EXPERIMENT_NOTES: ALK enzyme assay 2 (microfluidic mobility shift assay);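 further: kinase reaction run 1 h at room temperature, conversion quantified by electrophoretic separation of fluorescent peptide substrate from phosphorylated product, about 15-20% turnover without inhibitor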
OBSERVED_PROPERTY: Ki

[
  {
    "COMPOUND": "Cc1n[nH]cc1-c1cnc(N)c(OC(C)c2cc(F)ccc2-n2cccn2)c1 (stereo not drawn)",
    "REPORTED_MEASUREMENT": "< 200 pM"
  },
  {
    "COMPOUND": "Cc1nn(C2CCNC2=O)cc1-c1cnc(N)c(O[C@H](C)c2cc(F)ccc2-n2nccn2)c1 (stereo partly drawn)",
    "REPORTED_MEASUREMENT": "< 200 pM"
  },
  {
    "COMPOUND": "C[C@@H](Oc1cc(-c2cn([C@@H]3C[C@H]4CC[C@@H](C3)N4)nc2C#N)cnc1N)c1cc(F)ccc1-n1nccn1",
    "REPORTED_MEASUREMENT": "< 200 pM"
  },
  {
    "COMPOUND": "C[C@@H](Oc1cc(-c2ccnc(N3CCN(C)CC3)c2)cnc1N)c1cc(F)ccc1-n1nccn1",
    "REPORTED_MEASUREMENT": "< 200 pM"
  },
  {
    "COMPOUND": "C[C@@H](Oc1cc(-c2cnn(C3CCN(C(=O)CN(C)C)CC3)c2)cnc1N)c1cc(F)ccc1-n1nccn1",
    "REPORTED_MEASUREMENT": "< 200 pM"
  },
  {
    "COMPOUND": "CCc1nc(CO)sc1-c1cnc(N)c(O[C@H](C)c2cc(F)ccc2-n2nccn2)c1",
    "REPORTED_MEASUREMENT": "< 200 pM"
  },
  {
    "COMPOUND": "Cc1nn(CC(O)CO)c(C)c1-c1cnc(N)c(O[C@H](C)c2cc(F)ccc2-n2nccn2)c1 (stereo partly drawn)",
    "REPORTED_MEASUREMENT": "< 200 pM"
  },
  {
    "COMPOUND": "Cc1nc(CO)sc1-c1cnc(N)c(O[C@H](C)c2cc(F)ccc2-n2nccn2)c1",
    "REPORTED_MEASUREMENT": "< 200 pM"
  },
  {
    "COMPOUND": "COc1ccc(F)cc1[C@@H](C)Oc1nc(-c2ccc([C@H](C)N)cc2)cnc1N",
    "REPORTED_MEASUREMENT": "< 200 pM"
  },
  {
    "COMPOUND": "C[C@@H](Oc1cc(-c2ccc(OC3CCNCC3)nc2)cnc1N)c1cc(F)ccc1-n1nccn1",
    "REPORTED_MEASUREMENT": "< 200 pM"
  },
  {
    "COMPOUND": "C[C@@H](Oc1cc(-c2cnn(C3CCNCC3F)c2)cnc1N)c1cc(F)ccc1-n1nccn1 (stereo partly drawn)",
    "REPORTED_MEASUREMENT": "< 200 pM"
  },
  {
    "COMPOUND": "CC(O)c1ncc(-c2cnc(N)c(O[C@H](C)c3cc(F)ccc3-n3nccn3)c2)s1 (stereo partly drawn)",
    "REPORTED_MEASUREMENT": "< 490 pM"
  }
]
